Molecular target: UGT1A10 (Homo sapiens, UniProt Q9HAW8)
Sequence (Q9HAW8 26-530): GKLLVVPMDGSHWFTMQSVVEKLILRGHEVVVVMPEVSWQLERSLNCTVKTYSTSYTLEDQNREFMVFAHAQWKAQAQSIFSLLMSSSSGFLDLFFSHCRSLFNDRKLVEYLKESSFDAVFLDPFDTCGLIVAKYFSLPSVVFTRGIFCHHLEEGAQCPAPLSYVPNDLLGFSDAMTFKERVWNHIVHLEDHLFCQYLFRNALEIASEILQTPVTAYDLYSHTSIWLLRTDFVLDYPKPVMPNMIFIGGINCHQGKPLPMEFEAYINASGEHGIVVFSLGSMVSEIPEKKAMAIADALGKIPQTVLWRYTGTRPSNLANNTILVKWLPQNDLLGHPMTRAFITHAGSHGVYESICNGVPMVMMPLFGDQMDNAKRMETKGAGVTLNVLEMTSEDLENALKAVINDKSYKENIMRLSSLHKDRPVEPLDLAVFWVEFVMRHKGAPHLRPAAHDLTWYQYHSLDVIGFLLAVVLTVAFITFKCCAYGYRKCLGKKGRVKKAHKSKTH
Test: Ki assays / kinetics and inhibition type, UGT1A10 (Example 1)
Conditions: read-out: Kiapp (Substrate), 4-MU varied
measured-quantity: Ki (µM)
Reply with just the number (in µM).

Q: I am curious: what Ki value has been reported for CCCCCCCCCC(=O)NC(COC(=O)NS(=O)(=O)OCC1OC(n2ccc(=O)[nH]c2=O)C(O)C1O)Cc1ccccc1 (stereo not shown) [PP55B] ?
Ans: 96

###

Target: UGT2B7 (Homo sapiens, UniProt P16662)
Sequence (P16662 24-529): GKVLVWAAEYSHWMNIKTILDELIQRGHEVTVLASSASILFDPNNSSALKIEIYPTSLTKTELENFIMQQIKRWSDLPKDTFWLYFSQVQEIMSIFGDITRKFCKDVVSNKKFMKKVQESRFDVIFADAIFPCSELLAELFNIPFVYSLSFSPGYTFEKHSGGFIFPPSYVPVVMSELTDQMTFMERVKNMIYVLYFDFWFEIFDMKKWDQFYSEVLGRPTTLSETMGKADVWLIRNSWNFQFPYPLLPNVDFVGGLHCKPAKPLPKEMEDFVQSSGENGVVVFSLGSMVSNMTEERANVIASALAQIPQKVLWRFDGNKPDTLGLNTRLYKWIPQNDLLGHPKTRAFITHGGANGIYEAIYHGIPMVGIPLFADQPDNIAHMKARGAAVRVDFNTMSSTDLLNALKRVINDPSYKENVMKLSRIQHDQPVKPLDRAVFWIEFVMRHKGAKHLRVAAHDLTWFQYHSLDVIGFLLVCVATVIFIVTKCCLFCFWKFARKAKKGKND
Assay: Ki assays / kinetics and inhibition type, UGT2B7 (Example 1)
Details: read-out: Kiapp (Substrate); UGT2B7; linoleic acid varied
measured-quantity: Ki

Q: I am curious: what Ki value has been reported for CCCCCCCCCC(=O)NC(COC(=O)NS(=O)(=O)OCC1OC(n2ccc(=O)[nH]c2=O)C(O)C1O)Cc1ccccc1 (stereo not shown) [PP55B] ?
Ans: 4.2 µM
